- testedTarget: mouse ACVR2A (mouse, UniProt P27038 20-135, limits assumed); note: test concentration or dose not given here
- Sequence (P27038 20-135 limits assumed): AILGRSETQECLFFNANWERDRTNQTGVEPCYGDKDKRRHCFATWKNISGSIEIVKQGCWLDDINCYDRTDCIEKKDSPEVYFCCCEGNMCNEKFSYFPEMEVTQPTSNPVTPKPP
- procedureText: ELISA
Please go through the items and note down their optical density.
One number for each entry, in OD.

binder="374_F03 (antibody, V domains shown, Group I) VH: EVQLLESGGGLVQPGGSLRLSCAASGFTFSSYGMNWVRQAPGKGLEWVASINYNGGYTSYADSVKGRFTISRDNSKNTLYLQMNSLRAEDTAVYYCARAANWHDTHLDYWGQGTLVTVSS VL: DIQMTQSPSSLSASVGDRVTITCRASQSIISYVNWYQQKPGKAPKLVIYAATSRASGVPSRFSGSGSGTDFTLTISSLQPEDFATYYCQQSYDTPLTFGGGTKVEIK" measurednumber=3.62

Respectfully, I request optical density for each entry included below.
1. 365_G07 (antibody, V domains shown, Group I) VH: EVQLLESGGGLVQPGGSLRLSCAASGFTFDSYGMHWVRQAPGKGLEWVSSINYNGGYTSYADSVKGRFTISRDNSKNTLYLQMNSLRAEDTAVYYCARAANWHDTALDYWGQGTLVTVSS VL: DIQMTQSPSSLSASVGDRVTITCRASQSIVSYLNWYQQKPGKAPKLLIYAATSRASGVPSRFSGSGSGTDFTLTISSLQPEDFATYYCQQSYDNPLTFGGGTKVEIK
2. 369_B07 (antibody, V domains shown, Group II) VH: EVQLLESGGGLVQPGGSLRLSCAASGFTFDSYGMHWVRQAPGKGLEWVANINYNGGYKSYADSVKGRFTISRDNSKNTLYLQMNSLRAEDTAVYYCARAATWHDTHLDYWGQGTLVTVSS VL: DIQMTQSPSSLSASVGDRVTITCRASQSIVSYVNWYQQKPGKAPKLVIYAATSLASGVPSRFSGSGSGTDFTLTISSLQPEDFATYYCQQSYDLPLTFGGGTKVEIK
3. 371_F07 (antibody, V domains shown, Group II) VH: EVQLLESGGGLVQPGGSLRLSCAASGFTFSSYGMHWVRQAPGKGLEWVAGINYNGGYTSYADSVKGRFTISRDNSKNTLYLQMNSLRAEDTAVYYCARAATWHDTHLDYWGQGTLVTVSS VL: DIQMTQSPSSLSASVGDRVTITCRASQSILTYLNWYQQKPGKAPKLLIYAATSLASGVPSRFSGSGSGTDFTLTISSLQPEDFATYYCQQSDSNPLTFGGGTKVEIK

Response:
1: 2.6; 2: 2.9; 3: 2.89

List optical density for every entry below, keeping the order given.
1. 367_H08 (antibody, V domains shown, Group II) VH: EVQLLESGGGLVQPGGSLRLSCAASGFTFDSYGMNWVRQAPGKGLEWVSSINYNGGYTSYADSVKGRFTISRDNSKNTLYLQMNSLRAEDTAVYYCARAATWHDTHLDYWGQGTLVTVSS VL: DIQMTQSPSSLSASVGDRVTITCRASQSILTYVNWYQQKPGKAPKLLIYAATSRHSGVPSRFSGSGSGTDFTLTISSLQPEDFATYYCQQSYNLPLTFGGGTKVEIK
2. 368_E08 (antibody, V domains shown, Group II) VH: EVQLLESGGGLVQPGGSLRLSCAASGFTFDSYGMHWVRQAPGKGLEWVANINYNSGYTGYADSVKGRFTISRDNSKNTLYLQMNSLRAEDTAVYYCARAATWHDTHLDYWGQGTLVTVSS VL: DIQMTQSPSSLSASVGDRVTITCRASQSILSYVNWYQQKPGKAPKLVIYAATSLHSGVPSRFSGSGSGTDFTLTISSLQPEDFATYYCQQSYETPLTFGGGTKVEIK
3. 376_H12 (antibody, V domains shown, Group II) VH: EVQLLESGGGLVQPGGSLRLSCAASGFTFSDYGMHWVRQAPGKGLEWVASINYNGGYTSYADSVKGRFTISRDNSKNTLYLQMNSLRAEDTAVYYCARAATWHDTHLDYWGQGTLVTVSS VL: DIQMTQSPSSLSASVGDRVTITCRASQSIITYLNWYQQKPGKAPKLVIYAATSRASGVPSRFSGSGSGTDFTLTISSLQPEDFATYYCQQSYESPLTFGGGTKVEIK
4. 366_A08 (antibody, V domains shown, Group III) VH: EVQLLESGGGLVQPGGSLRLSCAASGFTFDDYSMNWVRQAPGKGLEWVSGINYNSGYKGYADSVKGRFTISRDNSKNTLYLQMNSLRAEDTAVYYCARGANWHDTHLDYWGQGTLVTVSS VL: DIQMTQSPSSLSASVGDRVTITCRASQSIVSYVNWYQQKPGKAPKLVIYAATSRASGVPSRFSGSGSGTDFTLTISSLQPEDFATYYCQQSYNSPLTFGGGTKVEIK

Response:
[2.47, 2.67, 3.08, 1.73]

Go through the list and state optical density for each entry.
1. 367_E08 (antibody, V domains shown, Group II) VH: EVQLLESGGGLVQPGGSLRLSCAASGFTFSDYGMNWVRQAPGKGLEWVASINYNGGYTSYADSVKGRFTISRDNSKNTLYLQMNSLRAEDTAVYYCARAATWHDTHLDYWGQGTLVTVSS VL: DIQMTQSPSSLSASVGDRVTITCRASQSILSYLNWYQQKPGKAPKLLIYATTSRASGVPSRFSGSGSGTDFTLTISSLQPEDFATYYCQQSYDNPLTFGGGTKVEIK
2. 374_H02 (antibody, V domains shown, Group II) VH: EVQLLESGGGLVQPGGSLRLSCAASGFTFSSYGMHWVRQAPGKGLEWVASINYNGGYTSYADSVKGRFTISRDNSKNTLYLQMNSLRAEDTAVYYCARAATWHDTHLDYWGQGTLVTVSS VL: DIQMTQSPSSLSASVGDRVTITCRASQSILSYVNWYQQKPGKAPKLLIYAATSLASGVPSRFSGSGSGTDFTLTISSLQPEDFATYYCQQSYDTPLTFGGGTKVEIK

Response:
1: 2.37; 2: 3.26

Origin of the recorded values: patent US20210380703A1
